Overview of recorded pKd for various binders
Molecular target: T1, RBMS1 (58-224) (Homo sapiens, UniProt P29558 62-223)
T1 sequence: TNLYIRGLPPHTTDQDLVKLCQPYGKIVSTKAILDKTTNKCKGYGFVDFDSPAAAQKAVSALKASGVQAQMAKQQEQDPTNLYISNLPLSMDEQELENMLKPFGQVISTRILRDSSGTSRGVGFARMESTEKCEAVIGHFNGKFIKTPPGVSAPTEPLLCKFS
Assay: ITC; 20 mM sodium phosphate pH 7.1, 50 mM NaCl, 303 K (30 C); 0.1 mM protein in cell, 1-1.5 mM DNA in syringe
Conditions: protein: recombinant; tags: N-term GAMG left after TEV cleavage of 6xHis
Recall that pKd is obtained by taking minus log10 of the concentration measured in molar.

In: I'd like to know its pKd. The binder in question is TCTTATT (ssDNA)
Out: 5.42

In: I'd like to know its pKd. The binder in question is TGGGATT (ssDNA)
Out: 4.44

In: I'd like to know its pKd. The binder in question is TGGTATT (ssDNA)
Out: 5.17

In: I'd like to know its pKd. The binder in question is TGGTAAT (ssDNA)
Out: 5.02

In: I'd like to know its pKd. The binder in question is CTTTA (ssDNA)
Out: 4.26

In: I'd like to know its pKd. The binder in question is TATAATT (ssDNA)
Out: 4.43

In: I'd like to know its pKd. The binder in question is TTTTT (ssDNA)
Out: 4.10

In: I'd like to know its pKd. The binder in question is TGGTACT (ssDNA)
Out: 4.80

In: I'd like to know its pKd. The binder in question is GGTAAT (ssDNA)
Out: 4.83

In: I'd like to know its pKd. The binder in question is TGGTTTT (ssDNA)
Out: 5.39

More entries:
In: I'd like to know its pKd. The binder in question is TGGTCAT (ssDNA)
Out: 4.76

In: I'd like to know its pKd. The binder in question is TGGAATT (ssDNA)
Out: 4.68

In: I'd like to know its pKd. The binder in question is TCATATT (ssDNA)
Out: 4.92

In: I'd like to know its pKd. The binder in question is GTTAT (ssDNA)
Out: 4.09

In: I'd like to know its pKd. The binder in question is TGTTATT (ssDNA)
Out: 4.82

In: I'd like to know its pKd. The binder in question is TCTTATG (ssDNA)
Out: 4.71

In: I'd like to know its pKd. The binder in question is TGGTATC (ssDNA)
Out: 5.21

In: I'd like to know its pKd. The binder in question is TGGTGTT (ssDNA)
Out: 4.79

In: I'd like to know its pKd. The binder in question is TGCTATT (ssDNA)
Out: 5.06

In: I'd like to know its pKd. The binder in question is TCCCATT (ssDNA)
Out: 5.09

In: I'd like to know its pKd. The binder in question is TCGTATT (ssDNA)
Out: 5.11

In: I'd like to know its pKd. The binder in question is TCGGATG (ssDNA)
Out: 4.45
